Each recorded value in this set is attributed to patent US20100222396A1.

target: human orexin 2 receptor (hOx2R) (Homo sapiens, UniProt O43614); construct: expressed in transfected cells; assay: Calcium accumulation in cells (FLIPR), antagonism of orexin A, hOx2R; type: cell-based; details: cells expressing human orexin 2 receptor; IC50 vs orexin A converted by Cheng and Prusoff correction
Sequence (O43614 whole entry): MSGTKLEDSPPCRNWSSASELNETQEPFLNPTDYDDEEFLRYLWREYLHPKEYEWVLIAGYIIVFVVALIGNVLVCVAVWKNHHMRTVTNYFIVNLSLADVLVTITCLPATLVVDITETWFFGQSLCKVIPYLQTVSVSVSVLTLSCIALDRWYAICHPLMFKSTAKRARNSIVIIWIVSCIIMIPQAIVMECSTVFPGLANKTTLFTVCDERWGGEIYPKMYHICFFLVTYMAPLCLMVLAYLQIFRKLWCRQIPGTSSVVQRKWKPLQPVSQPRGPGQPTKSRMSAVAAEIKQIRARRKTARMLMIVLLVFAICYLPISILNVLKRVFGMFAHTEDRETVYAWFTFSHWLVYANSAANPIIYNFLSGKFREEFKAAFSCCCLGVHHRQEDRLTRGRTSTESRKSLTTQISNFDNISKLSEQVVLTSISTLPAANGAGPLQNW
Readout Name: Kd (nM)

- Input Smiles: "CN(C(=O)c1ccc(Br)cc1)[C@H](CCNC(=O)c1ccccn1)Cc1ccccc1"
  Units Symbol: "nM"
  Obs Value: 115
- Input Smiles: "Cc1nc(C(=O)NCC[C@H](Cc2ccccc2)N(C)C(=O)c2ccc3c(c2)OCO3)c(-c2ccccc2F)s1"
  Units Symbol: "nM"
  Obs Value: 3
- Input Smiles: "COc1ccc(C(=O)N(C)[C@H](CCNC(=O)c2nc3ccccc3n2C)Cc2ccccc2)cc1"
  Units Symbol: "nM"
  Obs Value: 2540
- Input Smiles: "Cc1nc(C(=O)NCC[C@H](Cc2ccccc2)N(C)C(=O)c2ccccc2)c(-c2ccccc2F)s1"
  Units Symbol: "nM"
  Obs Value: 11
